B1: ZNF511 (parent)
chain: EPLPVERDPAAGAAPFRFVARPVR

- Variants of: B1
- procedure-details: protein stability index of a GFP-peptide fusion (GPS, HEK-293T) (PSI 1-6); higher = more stable;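 note: lentivirally expressed fusions sorted by FACS into six bins by GFP to DsRed ratio, PSI derived from sequencing read proportions per bin multiplied by bin number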
- particulars: c terminus: a fixed tail appended
Lab note: anything with protein stability index at or over 2 counts as Criterion met; the rest go in Criterion not met.

Take a look at these entries with their results.
mutation-descriptor | label
A13N | Criterion met
A13Q | Criterion met
A13S | Criterion met
A13W | Criterion not met
R7K | Criterion met

[Q] Please check the record `V5D` and state if its protein stability index is at or above 2.
[A] Criterion met

[Q] Is the recorded value of protein stability index equal to or greater than 2 for this variant? `P9W`
[A] Criterion not met

[Q] Determine whether this variant has protein stability index no lower than 2: `F16G`
[A] Criterion met

[Q] Evaluate `A10L` : protein stability index at minimum 2?
[A] Criterion met

[Q] Quick check: does `V5Q` have protein stability index greater than or equal to 2?
[A] Criterion met

[Q] Threshold query (protein stability index >= 2) on `G12A`
[A] Criterion met

[Q] Test whether the variant `P22H` records protein stability index of 2 or higher.
[A] Criterion not met

[Q] Dear colleague, could you confirm whether `A14P` has protein stability index at or above 2?
[A] Criterion met

[Q] Item `A20W` with protein stability index of 2 or above?
[A] Criterion met

[Q] Check the entry `F16H` : does protein stability index equal or exceed 2?
[A] Criterion met

[Q] Item `P2S` with protein stability index of 2 or above?
[A] Criterion met

[Q] Could you verify whether the entry `R7P` shows protein stability index of no less than 2?
[A] Criterion met

[Q] Say whether `A14C` shows protein stability index of 2 or more.
[A] Criterion met

[Q] I'd appreciate it if you could say whether `G12R` has protein stability index at least equal to 2.
[A] Criterion met

[Q] Record `P9S` ; criterion: protein stability index no lower than 2. Met?
[A] Criterion met
